pIC50 values, listed per item
system tested: human JAK3 (Homo sapiens, UniProt P52333)
Construct: catalytic domain (amino acids 781-1124; catalog number PV3855)
Sequence (P52333 781-1124): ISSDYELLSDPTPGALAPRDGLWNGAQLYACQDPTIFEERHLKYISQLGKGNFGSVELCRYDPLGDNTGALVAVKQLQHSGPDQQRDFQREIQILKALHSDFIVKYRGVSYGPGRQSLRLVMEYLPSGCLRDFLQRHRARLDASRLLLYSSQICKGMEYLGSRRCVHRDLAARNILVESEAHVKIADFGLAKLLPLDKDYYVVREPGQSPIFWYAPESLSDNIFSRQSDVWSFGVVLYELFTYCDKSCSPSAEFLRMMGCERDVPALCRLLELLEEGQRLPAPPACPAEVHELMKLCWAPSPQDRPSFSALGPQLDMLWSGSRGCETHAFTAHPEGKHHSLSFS
assay details: JAK3 inhibition assay
condition label: recombinant human JAK3 catalytic domain; polyGT substrate
pIC50: −log10 of the molar value.

molecule: CCc1cc(C2CN(S(=O)(=O)C(C)C)C2)ncc1N(C)c1cc2c(cn1)ncn2C [Compound 330]
pIC50: < 6.00
//
molecule: CN(c1cc2c(cn1)ncn2C)c1ccc(C2CN(CC(F)F)C2)cc1OC(F)F [Compound 365]
pIC50: 6.30 to 7.00
//
molecule: CCc1cc(O[C@H]2CCN(S(C)(=O)=O)C2)ccc1N(C)c1cc2c(cn1)ncn2C [Compound 260]
pIC50: 6.30 to 7.00
//
molecule: CCc1cc(C2CN(C(=O)OC)C2)ncc1N(C)c1cc2c(cn1)ncn2C [Compound 339]
pIC50: < 6.00

Endpoint output: pIC50 of CCc1cc(-c2cscn2)ccc1N(C)c1cc2c(cn1)ncn2C [Compound 150] . Value?
6.30 to 7.00

Endpoint output: pIC50 of CCc1cc(-c2nnc(C)o2)ccc1N(C)c1cc2c(cn1)ncn2C [Compound 177] . Value?
< 6.00

Endpoint output: pIC50 of CCc1cc(C(=O)NCCO)ccc1N(C)c1cc2c(cn1)ncn2C [Compound 160] . Value?
< 6.00
